These measurements were taken from ChEMBL document CHEMBL1139629.

Molecular target: Prostacyclin receptor (Homo sapiens)
Sequence (P43119 whole entry): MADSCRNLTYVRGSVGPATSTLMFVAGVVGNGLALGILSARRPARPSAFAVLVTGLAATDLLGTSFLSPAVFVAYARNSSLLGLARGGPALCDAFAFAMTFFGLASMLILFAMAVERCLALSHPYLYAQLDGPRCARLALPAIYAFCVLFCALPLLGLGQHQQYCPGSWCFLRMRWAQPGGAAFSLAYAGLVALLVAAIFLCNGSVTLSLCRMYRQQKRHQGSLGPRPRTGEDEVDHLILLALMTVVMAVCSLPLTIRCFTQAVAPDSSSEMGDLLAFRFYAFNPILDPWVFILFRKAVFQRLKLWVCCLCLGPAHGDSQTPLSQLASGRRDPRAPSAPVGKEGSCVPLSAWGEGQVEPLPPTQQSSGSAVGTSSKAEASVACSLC
measured_endpoint: Ki

Query block: Look at this compound and give its reported Ki. O=C(O)COc1cccc2c1CCC(COC(=O)N(c1ccccc1)c1ccccc1)C2 (stereo unspecified)
Result block: 140 nM

###

A set of molecules tested on Prostaglandin E2 receptor EP4 subtype (Homo sapiens, UniProt P35408), with measured pKi:
pKi: −log10 of the molar value.

Query block: Look at this molecule and give its reported pKi. O=C(O)COc1cccc2c1CC[C@](O)(COC(=O)N(c1ccccc1)c1ccccc1)C2
Result block: < 5.00

Query block: Look at this molecule and give its reported pKi. O=C(O)COc1cccc2c1CCC(COC(=O)N(c1ccccc1)c1ccccc1)C2 (stereo not drawn)
Result block: < 5.00

---
Query block: Look at this molecule and give its reported pKi. O=C(O)COc1cccc2c1CC[C@](O)(COC(=O)N(c1ccccc1)c1ccccc1)C2O (single isomer, unassigned)
Result block: < 5.00
